Provenance of the data: ChEMBL document CHEMBL1131216

system: Streptococcus pneumoniae; assay: In vitro antibacterial activity of 5649 strain of Gram positive bacteria Streptococcus pneumoniae; assay type: functional
Reported Property: MIC (µg/mL)
One number for each entry, in µg/mL.

{"Molecule": "CC[C@H]1OC(=O)/C(C)=C/[C@H](C)[C@@H](O[C@@H]2O[C@H](C)C[C@H](N(C)C)[C@H]2O)[C@@](C)(OC)C[C@@H](C)C(=O)[C@H](C)[C@H]2N(NCc3c[nH]c4ccccc34)C(=O)O[C@]12C", "U": "µg/mL", "MIC": 1}

Shifting focus to the molecule that follows.
Problem: Report MIC from Streptococcus pneumoniae testing of CC[C@H]1OC(=O)/C(C)=C/[C@H](C)[C@@H](O[C@@H]2O[C@H](C)C[C@H](N(C)C)[C@H]2O)[C@@](C)(OC)C[C@@H](C)C(=O)[C@H](C)[C@H]2N(NCc3ccc(N(C)C)c4ccccc34)C(=O)O[C@]12C
Solution: 2
